Catalogue of Inhibition values
# Test system: Cryptococcus neoformans
# protocol: In vitro antifungal activity against Cryptococcus neoformans
# Assay type: functional

{"compound": "O=c1n(-c2ccc(N3CCN(c4ccc(OC[C@@H]5COC(Cn6cncn6)(c6ccc(Cl)cc6Cl)O5)cc4)CC3)cc2)cnn1C1CCCC1 (some centres not stated)", "Inhibition": ">100 µg/mL"}
{"compound": "Cc1nn(C)c(=O)n1-c1ccc(N2CCN(c3ccc(OC[C@@H]4COC(Cn5ccnc5)(c5ccc(Cl)cc5Cl)O4)cc3)CC2)cc1 (some centres not stated)", "Inhibition": ">100 µg/mL"}
{"compound": "Cc1nn(CC(C)C)c(=O)n1-c1ccc(N2CCN(c3ccc(OC[C@@H]4COC(Cn5ccnc5)(c5ccc(Cl)cc5Cl)O4)cc3)CC2)cc1 (some centres not stated)", "Inhibition": "100 µg/mL"}

Input: Value lookup for Inhibition; key = CCn1nc(C)n(-c2ccc(N3CCN(c4ccc(OC[C@@H]5COC(Cn6ccnc6)(c6ccc(Cl)cc6Cl)O5)cc4)CC3)cc2)c1=O (some centres not stated)
Output: >100 µg/mL

Input: Follow-up item: CCCCn1ncn(-c2ccc(N3CCN(c4ccc(OC[C@@H]5COC(Cn6cncn6)(c6ccc(Cl)cc6Cl)O5)cc4)CC3)cc2)c1=O (some centres not stated)
Output: >100 µg/mL

Input: Now give it for Cc1nnc(O)n1-c1ccc(N2CCN(c3ccc(OC[C@@H]4COC(Cn5cncn5)(c5ccc(Cl)cc5Cl)O4)cc3)CC2)cc1 (some centres not stated) too.
Output: 100 µg/mL

Input: And the next one, CCc1nnc(O)n1-c1ccc(N2CCN(c3ccc(OC[C@@H]4COC(Cn5ccnc5)(c5ccc(Cl)cc5Cl)O4)cc3)CC2)cc1 (some centres not stated) ?
Output: >100 µg/mL

* * *

# protocol: In vivo activity against microsporosis guinea pig, measured as the ratio of animals cured/animals infected (C/I) at dose 10 mg/kg; C/I = 2/2
# Format: functional
measure_name: C/I ratio

Some solved cases for reference:
{"molecule": "Cc1nn(CC(C)C)c(=O)n1-c1ccc(N2CCN(c3ccc(OC[C@@H]4COC(Cn5ccnc5)(c5ccc(Cl)cc5Cl)O4)cc3)CC2)cc1 (stereo not given in full)", "result": 2}
{"molecule": "O=c1n(-c2ccc(N3CCN(c4ccc(OC[C@@H]5COC(Cn6cncn6)(c6ccc(Cl)cc6Cl)O5)cc4)CC3)cc2)cnn1C1CCCC1 (stereo not given in full)", "result": 2}
{"molecule": "O=c1n(-c2ccc(N3CCN(c4ccc(OC[C@@H]5COC(Cn6cncn6)(c6ccc(Cl)cc6Cl)O5)cc4)CC3)cc2)cnn1CC1CC1 (stereo not given in full)", "result": 1}
{"molecule": "CC(C)Cn1ncn(-c2ccc(N3CCN(c4ccc(OC[C@@H]5COC(Cn6cncn6)(c6ccc(Cl)cc6Cl)O5)cc4)CC3)cc2)c1=O (stereo not given in full)", "result": 2}

Switching to the query record.
Input: C/I ratio for CCC(C)n1nc(C)n(-c2ccc(N3CCN(c4ccc(OC[C@@H]5COC(Cn6cncn6)(c6ccc(Cl)cc6Cl)O5)cc4)CC3)cc2)c1=O (stereo not given in full) ?
Output: 2

* * *

# Test system: Candida albicans
# protocol: In vitro antifungal activity against Candida albicans
# Type: functional
measure_name: Inhibition (µg/mL)
Answer format: numeric, µg/mL implied, no suffix.

{"molecule": "CCCn1nc(C)n(-c2ccc(N3CCN(c4ccc(OC[C@@H]5COC(Cn6cncn6)(c6ccc(Cl)cc6Cl)O5)cc4)CC3)cc2)c1=O (stereo partly drawn)", "Inhibition [µg/mL]": 100}

Input: Hello, I am looking for reported Inhibition with Candida albicans for CC(C)CCn1ncn(-c2ccc(N3CCN(c4ccc(OC[C@@H]5COC(Cn6cncn6)(c6ccc(Cl)cc6Cl)O5)cc4)CC3)cc2)c1=O (stereo partly drawn) . Could you help?
Output: 100

* * *

# Test system: Candida albicans
# protocol: In vitro antifungal activity against Candida albicans
# Type: functional
measure_name: Inhibition (µg/mL)
Express your answer in µg/mL, writing the number without its unit.

Worked examples, 3 compounds total:
{"compound": "CCCn1nc(CC)n(-c2ccc(N3CCN(c4ccc(OC[C@@H]5COC(Cn6ccnc6)(c6ccc(Cl)cc6Cl)O5)cc4)CC3)cc2)c1=O (stereo partly specified)", "result_number": 100}
{"compound": "CCC(C)n1nc(C)n(-c2ccc(N3CCN(c4ccc(OC[C@@H]5COC(Cn6cncn6)(c6ccc(Cl)cc6Cl)O5)cc4)CC3)cc2)c1=O (stereo partly specified)", "result_number": 10}
{"compound": "Cc1nn(CC(C)C)c(=O)n1-c1ccc(N2CCN(c3ccc(OC[C@@H]4COC(Cn5cncn5)(c5ccc(Cl)cc5Cl)O4)cc3)CC2)cc1 (stereo partly specified)", "result_number": 100}

Input: What Inhibition value was documented for this compound, CCCn1nc(C)n(-c2ccc(N3CCN(c4ccc(OC[C@@H]5COC(Cn6ccnc6)(c6ccc(Cl)cc6Cl)O5)cc4)CC3)cc2)c1=O (stereo partly specified) ?
Output: 100

* * *

# Tested on: Microsporum canis
# protocol: In vitro antifungal activity against Microsporum canis
# Assay type: functional
Overview of recorded Inhibition for various compounds

// below: answered compounds
{"compound": "O=c1n(-c2ccc(N3CCN(c4ccc(OC[C@@H]5COC(Cn6cncn6)(c6ccc(Cl)cc6Cl)O5)cc4)CC3)cc2)cnn1C1CCCC1 (stereo partly specified)", "Inhibition": ">100 µg/mL"}
{"compound": "Cc1nn(CC(C)C)c(=O)n1-c1ccc(N2CCN(c3ccc(OC[C@@H]4COC(Cn5ccnc5)(c5ccc(Cl)cc5Cl)O4)cc3)CC2)cc1 (stereo partly specified)", "Inhibition": ">100 µg/mL"}

Input: What value of measured Inhibition is listed for CCn1ncn(-c2ccc(N3CCN(c4ccc(OC[C@@H]5COC(Cn6ccnc6)(c6ccc(Cl)cc6Cl)O5)cc4)CC3)cc2)c1=O (stereo partly specified) ?
Output: >100 µg/mL

Input: Proceed to Cc1nn(C)c(=O)n1-c1ccc(N2CCN(c3ccc(OC[C@@H]4COC(Cn5ccnc5)(c5ccc(Cl)cc5Cl)O4)cc3)CC2)cc1 (stereo partly specified)
Output: 100 µg/mL

Input: Input O=c1n(-c2ccc(N3CCN(c4ccc(OC[C@@H]5COC(Cn6cncn6)(c6ccc(Cl)cc6Cl)O5)cc4)CC3)cc2)cnn1CC1CC1 (stereo partly specified)
Output: >100 µg/mL

Input: Cc1nn(C(C)C)c(=O)n1-c1ccc(N2CCN(c3ccc(OC[C@@H]4COC(Cn5ccnc5)(c5ccc(Cl)cc5Cl)O4)cc3)CC2)cc1 (stereo partly specified) , same question.
Output: >100 µg/mL

* * *

# Tested on: Cryptococcus neoformans
# protocol: In vitro antifungal activity against Cryptococcus neoformans
# Format: functional
Reported Inhibition values are given for each entry in this list.

The cases that follow already have their Inhibition on record.
{"molecule": "CC(C)Cn1ncn(-c2ccc(N3CCN(c4ccc(OC[C@@H]5COC(Cn6cncn6)(c6ccc(Cl)cc6Cl)O5)cc4)CC3)cc2)c1=O (stereo partly drawn)", "result": "100 µg/mL"}
{"molecule": "CCn1nc(C)n(-c2ccc(N3CCN(c4ccc(OC[C@@H]5COC(Cn6cncn6)(c6ccc(Cl)cc6Cl)O5)cc4)CC3)cc2)c1=O (stereo partly drawn)", "result": ">100 µg/mL"}
{"molecule": "Cn1ncn(-c2ccc(N3CCN(c4ccc(OC[C@@H]5COC(Cn6ccnc6)(c6ccc(Cl)cc6Cl)O5)cc4)CC3)cc2)c1=O (stereo partly drawn)", "result": "1 µg/mL"}
{"molecule": "CCCCn1nc(C)n(-c2ccc(N3CCN(c4ccc(OC[C@@H]5COC(Cn6ccnc6)(c6ccc(Cl)cc6Cl)O5)cc4)CC3)cc2)c1=O (stereo partly drawn)", "result": "100 µg/mL"}
{"molecule": "CC(C)n1ncn(-c2ccc(N3CCN(c4ccc(OC[C@@H]5COC(Cn6ccnc6)(c6ccc(Cl)cc6Cl)O5)cc4)CC3)cc2)c1=O (stereo partly drawn)", "result": ">100 µg/mL"}
{"molecule": "Oc1nncn1-c1ccc(N2CCN(c3ccc(OC[C@@H]4COC(Cn5ccnc5)(c5ccc(Cl)cc5Cl)O4)cc3)CC2)cc1 (stereo partly drawn)", "result": ">100 µg/mL"}

As a next step, examine the molecule that follows.
Input: For the molecule shown here, CCCn1nc(C)n(-c2ccc(N3CCN(c4ccc(OC[C@@H]5COC(Cn6ccnc6)(c6ccc(Cl)cc6Cl)O5)cc4)CC3)cc2)c1=O (stereo partly drawn) , give the reported Inhibition.
Output: >100 µg/mL

* * *

The compounds listed here are annotated with their Inhibition.
# System: Candida albicans
# protocol: In vitro antifungal activity against Candida albicans
# Format: functional

In the examples that follow, each entry is paired with its recorded Inhibition.
{"compound": "O=c1n(-c2ccc(N3CCN(c4ccc(OC[C@@H]5COC(Cn6cncn6)(c6ccc(Cl)cc6Cl)O5)cc4)CC3)cc2)cnn1CC1CC1 (stereo partly drawn)", "measure_name": "Inhibition", "result": "100 µg/mL"}
{"compound": "Cc1nn(C(C)C)c(=O)n1-c1ccc(N2CCN(c3ccc(OC[C@@H]4COC(Cn5cncn5)(c5ccc(Cl)cc5Cl)O4)cc3)CC2)cc1 (stereo partly drawn)", "measure_name": "Inhibition", "result": ">100 µg/mL"}

Now for a further compound.
Input: Give the measured Inhibition of CCn1nc(C)n(-c2ccc(N3CCN(c4ccc(OC[C@@H]5COC(Cn6cncn6)(c6ccc(Cl)cc6Cl)O5)cc4)CC3)cc2)c1=O (stereo partly drawn) .
Output: >100 µg/mL

Value source: ChEMBL document CHEMBL1122688
